System: SNB-19
Assay: NCI tumour cell line growth inhibition, 48 h
Activity calls are given as the source filed them. Rule as the data show it: active = GI50 up to about 1.1 µM and inactive = higher. Residues, ends and D or L forms follow the SMILES beside them. *: point of attachment. OBn = c1ccc(CO*)cc1
PROPERTY: GI50

Lookup: Fill in the blank: the reported GI50 of "C#CCCCC(=C)C[C@H](OCc1ccccc1)[C@H]1OC(=O)[C@@H]1C" is ____.
Found: > 100 µM (inactive)

Lookup: Fill in the blank: the reported GI50 of "COc1ccc(-n2c(=O)n(C)c(=O)n2-c2c(C)c(C)c(C)c(C)c2C)cc1" is ____.
Found: > 100 µM (inactive)

Lookup: Fill in the blank: the reported GI50 of O=C(O)CNC(=O)c1ccc2cc(C(=O)N3CC(CCl)c4ccc([N+](=O)[O-])cc43)[nH]c2c1 (configuration not stated) is ____.
Found: > 100 µM (inactive)

Lookup: Fill in the blank: the reported GI50 of "CC1=C(C(=O)Nc2cccc(Cl)c2)C(c2ccccc2F)C(C(=O)Nc2cccc(Cl)c2)=C(C)N1" is ____.
Found: 19.2 µM (inactive)

Lookup: Fill in the blank: the reported GI50 of "COc1ccc2c(c1)[n+]([O-])c(/C(C)=N/NC(N)=S)c(C)[n+]2[O-]" is ____.
Found: > 100 µM (inactive)

Lookup: Fill in the blank: the reported GI50 of "COc1cc2c(cc1OC)C(=O)Cc1ccc3c(c1CNCC2)OCO3" is ____.
Found: > 100 µM (inactive)

Lookup: Fill in the blank: the reported GI50 of "Cn1c(-c2ccc[se]2)ccc1-c1ccc(C=O)[se]1" is ____.
Found: > 100 µM (inactive)

Lookup: Fill in the blank: the reported GI50 of "Cc1ccc(Oc2ccc(C)cc2N)cc1" is ____.
Found: > 100 µM (inactive)

Lookup: Fill in the blank: the reported GI50 of "CCCCCCSC[C@H](OC(C)=O)[C@@H](OC(C)=O)[C@@H](OC(C)=O)[C@@H](COC(C)=O)OC(C)=O" is ____.
Found: > 100 µM (inactive)

Lookup: Fill in the blank: the reported GI50 of Cc1cn(C2CC(N)C(CN)O2)c(=O)[nH]c1=O (configuration not stated) is ____.
Found: > 100 µM (inactive)

Lookup: Fill in the blank: the reported GI50 of COc1ccc(C2C3CCCC(C3=O)C(c3ccc(OC)cc3)N2N=O)cc1 (configuration not stated) is ____.
Found: 36.3 µM (inactive)

Lookup: Fill in the blank: the reported GI50 of "c1ccc([P+](c2ccccc2)(c2ccccc2)C2Sc3ccccc3S2)cc1" is ____.
Found: 27.7 µM (inactive)

Lookup: Fill in the blank: the reported GI50 of "C=O.NNCCc1n[nH]c(=O)n1N" is ____.
Found: > 100 µM (inactive)

Lookup: Fill in the blank: the reported GI50 of "O=C1/C(=N/c2ccc(Nc3ccccc3)cc2)Oc2ccccc21" is ____.
Found: 2.36 µM (inactive)

Lookup: Fill in the blank: the reported GI50 of "O=C1Nc2ccccc2SC1=C(C(=O)c1ccccc1)C(=O)c1ccccc1" is ____.
Found: 41.2 µM (inactive)

Lookup: Fill in the blank: the reported GI50 of "CC(=O)/C(=C/N1CCNC1=S)C(=O)Nc1ccccc1C" is ____.
Found: > 100 µM (inactive)

Lookup: Fill in the blank: the reported GI50 of "O=C1/C(=C/c2ccc(Cl)cc2)N=C(c2ccccc2)N1/N=C/c1ccccc1O" is ____.
Found: > 100 µM (inactive)

Lookup: Fill in the blank: the reported GI50 of NC(CCC(=O)OCc1ccccc1)C(=O)NC(CCC(=O)OCc1ccccc1)C(=O)O (configuration not stated) (H-Glu(OBn)-Glu(OBn)-OH; configuration not given here) is ____.
Found: > 100 µM (inactive)

Lookup: Fill in the blank: the reported GI50 of N#CN1CCC2CC(=O)CCC2C1 (configuration not stated) is ____.
Found: > 100 µM (inactive)

Lookup: Fill in the blank: the reported GI50 of "CN(C)CCNC(=O)c1cccc2cc3c(Cl)cccc3nc12" is ____.
Found: 1.71 µM (inactive)

Lookup: Fill in the blank: the reported GI50 of O=C1NC(c2ccccc2)C1N(Cc1ccccc1)Cc1ccccc1 (configuration not stated) is ____.
Found: > 100 µM (inactive)

Lookup: Fill in the blank: the reported GI50 of CC1=C(C(=O)OC(C)C)C(c2ccccc2[N+](=O)[O-])C(C(=O)OC(CO[N+](=O)[O-])CO[N+](=O)[O-])=C(C)N1 (configuration not stated) is ____.
Found: 3.44 µM (inactive)

Lookup: Fill in the blank: the reported GI50 of "C1=CN2C[n+]3ccc4ccccc4c3N=C2c2ccccc21" is ____.
Found: 2.11 µM (inactive)

Cited source for all entries: ChEMBL document CHEMBL1201862
